// reported log10 CC50 at 48 h per item
# EXPERIMENTAL DETAILS: Cytotoxicity against human HG23 cells after 48 hrs
# Type: cell-based
# PARTICULARS: read-out: TD50
MEASURED QUANTITY: log10 CC50 at 48 h (log10 of the value in µM)

> print(dat)
                              record.smiles  endpoint.result
1  CC(C)(C)OC(=O)CN1CCN(Cc2cccc(Oc3ccccc3)c2)C1=O             1.74
2  O=C1N(CCN2CCN(CCN3CCN(Cc4cccc(Oc5ccccc5)c4)C3=O)CC2)CCN1Cc1cccc(Oc2ccccc2)c1             0.40
3  C[Si](C)(C)c1cn(Cc2cccc(Oc3ccccc3)c2)nn1             1.48
4         CCCCc1cn(Cc2cccc(Oc3ccccc3)c2)nn1             1.60
5             c1ccc(Oc2cccc(Cn3ccnn3)c2)cc1             2.00
6             c1ccc(Oc2cccc(Cn3ccnc3)c2)cc1             1.54
7  O=C1N(CCN2CCOCC2)CCN1Cc1cccc(Oc2ccccc2)c1             2.08
8             O=C1NCCN1Cc1cccc(Oc2ccccc2)c1             1.98
